Target: D-2 receptor (Bos taurus, UniProt P20288)
Construct: Striata were dissected on ice and membranes prepared as described earlier; from tissue; host or cells: bovine striatum (membranes; brains from a local slaughter house)
Sequence (P20288 whole entry): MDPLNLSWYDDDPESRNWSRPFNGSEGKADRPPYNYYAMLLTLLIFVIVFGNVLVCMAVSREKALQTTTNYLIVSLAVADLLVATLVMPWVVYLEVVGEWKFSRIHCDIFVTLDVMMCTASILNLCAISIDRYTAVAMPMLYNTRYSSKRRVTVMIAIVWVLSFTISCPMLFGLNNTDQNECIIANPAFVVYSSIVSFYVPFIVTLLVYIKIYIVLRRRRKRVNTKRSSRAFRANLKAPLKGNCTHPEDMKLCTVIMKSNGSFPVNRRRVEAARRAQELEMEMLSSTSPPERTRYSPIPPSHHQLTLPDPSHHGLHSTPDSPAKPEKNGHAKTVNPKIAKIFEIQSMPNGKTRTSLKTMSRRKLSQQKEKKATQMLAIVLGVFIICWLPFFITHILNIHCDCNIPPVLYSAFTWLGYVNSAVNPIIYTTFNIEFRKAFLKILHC
Test: Competitive inhibition binding assay, 3H-spiperone (D2-binding), bovine striatal membranes
Settings: 3H-spiperone binding, bovine striatal membranes, 30 minute at 37° C., Tris-HCl pH 7.4
Source text: Compounds of represented by formula I may be synthesized as disclosed herein and diluted in 0.05M Tris buffer, pH 7.4, as required. Bovine brains were obtained from a local slaughter house, on ice. […]
quantityKind: Ki
Include the unit right after the number.

| compound | measuredTarget | recordedResult |
| --- | --- | --- |
| CN1CCc2cc(Cl)c(O)cc2[C@@H](c2ccccc2)C1 | D-2 receptor (Bos taurus, UniProt P20288) | 0.8 µM |

Continue with the next compound.
Entry CC(=O)Nc1cc(O)ccc1O [2,5-dihydroxyacetanilide] needs its Ki filled in; supply it.
200 µM
